Test system: RAW264.7 macrophages
assayMethodText: Cell viability (MTT) cytotoxic assay
Type: cell-based
conditionLabel: RAW264.7 macrophages, MTT
Reported Cytotoxicity (the maximum concentration not affecting cell viability) by item:
Kindly answer with a numeric value in µM, unit omitted.

molecule	unitText	number
CO[C@H]1CCC[C@H](C)OC(=O)Cc2cc(O)cc(O)c2C(=O)C1 [Compound 7, (11S,15S)-11-methoxycurvularin]	µM	20
C[C@H]1CCC[C@@H](O)CC(=O)c2c(O)cc(O)cc2CC(=O)O1 [Compound 4, (11R,15S)-11-hydroxycurvularin]	µM	40
C[C@H]1CCC/C=C/C(=O)c2c(O)cc(O)cc2CC(=O)O1 [Compound 8, (10E,15S)-10,11-dehydrocurvularin]	µM	20

Now look at this entry.
Tested on RAW264.7 macrophages: C[C@H]1CCC[C@H](O)CC(=O)c2c(O)cc(O)cc2CC(=O)O1 [Compound 5, (11S,15S)-11-hydroxycurvularin] . Observed Cytotoxicity (the maximum concentration not affecting cell viability): 40

====

Cytotoxicity (the maximum concentration not affecting cell viability) overview
Tested on: RAW264.7 macrophages
assayMethodText: Cell viability (MTT) cytotoxic assay
Format: cell-based
conditionLabel: RAW264.7 macrophages, MTT

molecule	measuredTarget	result
C[C@H]1CCC/C=C\C(=O)c2c(O)cc(O)cc2CC(=O)O1 [Compound 9, (10Z,15S)-10,11-dehydrocurvularin]	RAW264.7 macrophages	20 µM
CO[C@@H]1CCC[C@H](C)OC(=O)Cc2cc(O)cc(O)c2C(=O)C1 [Compound 6, (11R,15S)-11-methoxycurvularin]	RAW264.7 macrophages	20 µM
C[C@H]1CCC[C@@H](CC(=O)c2c(O)cc(O)cc2CC(=O)O)O1	RAW264.7 macrophages	>80 µM

Record CC(=O)Oc1cc(O)c2c(c1)CC(=O)O[C@@H](C)CCCCCC2=O , field Cytotoxicity (the maximum concentration not affecting cell viability): >80 µM
